Molecular target: ERBB4 (Homo sapiens)
Construct: purchased Eurofins DiscoverX KINOMEscan (scanTK)
Sequence (Q15303 26-1308): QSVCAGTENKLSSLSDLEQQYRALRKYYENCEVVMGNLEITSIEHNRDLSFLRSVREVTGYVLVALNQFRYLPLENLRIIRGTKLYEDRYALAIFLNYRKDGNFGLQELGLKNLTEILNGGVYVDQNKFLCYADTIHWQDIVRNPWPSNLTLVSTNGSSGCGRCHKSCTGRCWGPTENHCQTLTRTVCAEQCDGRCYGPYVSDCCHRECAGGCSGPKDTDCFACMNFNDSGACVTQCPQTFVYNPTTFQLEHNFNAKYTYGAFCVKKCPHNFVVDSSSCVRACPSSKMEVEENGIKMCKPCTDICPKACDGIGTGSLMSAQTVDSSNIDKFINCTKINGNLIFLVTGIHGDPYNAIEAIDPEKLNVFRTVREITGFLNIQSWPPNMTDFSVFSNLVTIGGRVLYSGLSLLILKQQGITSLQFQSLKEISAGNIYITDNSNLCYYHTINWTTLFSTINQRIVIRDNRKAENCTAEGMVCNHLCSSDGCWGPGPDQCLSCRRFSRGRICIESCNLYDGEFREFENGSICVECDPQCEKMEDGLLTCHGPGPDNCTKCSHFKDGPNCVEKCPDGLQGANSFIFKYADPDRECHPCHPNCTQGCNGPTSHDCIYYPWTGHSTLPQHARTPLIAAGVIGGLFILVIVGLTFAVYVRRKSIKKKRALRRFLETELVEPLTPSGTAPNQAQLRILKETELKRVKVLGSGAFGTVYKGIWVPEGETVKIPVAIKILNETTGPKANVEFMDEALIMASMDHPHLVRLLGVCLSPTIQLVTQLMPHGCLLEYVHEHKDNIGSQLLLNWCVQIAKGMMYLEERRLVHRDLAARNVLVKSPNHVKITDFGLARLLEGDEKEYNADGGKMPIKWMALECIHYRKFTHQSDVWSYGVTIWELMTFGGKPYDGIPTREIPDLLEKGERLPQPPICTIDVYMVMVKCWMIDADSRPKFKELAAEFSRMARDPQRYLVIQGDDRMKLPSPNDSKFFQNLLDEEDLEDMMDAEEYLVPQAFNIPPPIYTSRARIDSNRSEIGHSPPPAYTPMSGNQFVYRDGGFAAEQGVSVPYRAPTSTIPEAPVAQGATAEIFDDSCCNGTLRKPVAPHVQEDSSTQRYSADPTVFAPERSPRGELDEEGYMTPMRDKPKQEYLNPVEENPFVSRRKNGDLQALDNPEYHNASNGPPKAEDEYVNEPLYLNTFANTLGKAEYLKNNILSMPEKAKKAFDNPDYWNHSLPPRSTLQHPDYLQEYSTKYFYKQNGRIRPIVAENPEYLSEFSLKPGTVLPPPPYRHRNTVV
Assay: KINOMEscan ScanTK
Format: binding
Details: @1000nM, read-out: %Control
Sorting guide: entries reporting remaining binding at 1 µM beneath 0.6% go in the Satisfied pile, the rest go in the Not satisfied pile.

1. CCOC(=O)c1cnc(S(C)(=O)=O)nc1N1CCC[C@@H](n2nc(-c3ccc(Oc4ccccc4)cc3)c3c(N)ncnc32)C1 = Not satisfied
2. CNC(=O)c1cnc(S(C)(=O)=O)nc1N1CCCC(n2nc(-c3ccc(Oc4ccccc4)cc3)c3c(N)ncnc32)C1 (centres unmarked) = Satisfied
3. C=CC(=O)N1CCC[C@@H](n2nc(-c3ccc(Oc4ccccc4)cc3)c3c(N)ncnc32)C1 [Compound 1g, Ibrutinib, reference compound] = Satisfied
4. COC(=O)c1cnc(S(C)(=O)=O)nc1N1CCCC(n2nc(-c3ccc(Oc4ccccc4)cc3)c3c(N)ncnc32)C1 (centres unmarked) = Satisfied
5. Cc1cnc(S(C)(=O)=O)nc1N1CCCC(n2nc(-c3ccc(Oc4ccccc4)cc3)c3c(N)ncnc32)C1 (centres unmarked) = Not satisfied

* * *

System: EGFR(L747-T751del,Sins)
Assay: KINOMEscan ScanTK
Type: binding
Sorting guide: entries reporting %Control @1000nM beneath 60% go in the condition met pile, the rest go in the condition not met pile.

1. CNC(=O)c1cnc(S(C)(=O)=O)nc1N1CCCC(n2nc(-c3ccc(Oc4ccccc4)cc3)c3c(N)ncnc32)C1 (centres unmarked) = condition met
2. Cc1cnc(S(C)(=O)=O)nc1N1CCCC(n2nc(-c3ccc(Oc4ccccc4)cc3)c3c(N)ncnc32)C1 (centres unmarked) = condition not met
3. CCOC(=O)c1cnc(S(C)(=O)=O)nc1N1CCC[C@@H](n2nc(-c3ccc(Oc4ccccc4)cc3)c3c(N)ncnc32)C1 = condition not met
4. COC(=O)c1cnc(S(C)(=O)=O)nc1N1CCCC(n2nc(-c3ccc(Oc4ccccc4)cc3)c3c(N)ncnc32)C1 (centres unmarked) = condition not met
5. C=CC(=O)N1CCC[C@@H](n2nc(-c3ccc(Oc4ccccc4)cc3)c3c(N)ncnc32)C1 [Compound 1g, Ibrutinib, reference compound] = condition met

* * *

Biological target: ABL1(F317I)-nonphosphorylated (Homo sapiens, UniProt P00519, F317I)
Construct: purchased Eurofins DiscoverX KINOMEscan (scanTK)
Experiment: KINOMEscan ScanTK
Format: binding
Conditions: @1000nM
Here the recorded difference in %Control versus compound Ib at 1 µM is given for each entry.
Quantity: difference in %Control versus compound Ib at 1 µM

1. COC(=O)c1cnc(S(C)(=O)=O)nc1N1CCCC(n2nc(-c3ccc(Oc4ccccc4)cc3)c3c(N)ncnc32)C1 (stereo not shown) = 30%
2. CNC(=O)c1cnc(S(C)(=O)=O)nc1N1CCCC(n2nc(-c3ccc(Oc4ccccc4)cc3)c3c(N)ncnc32)C1 (stereo not shown) = 33%
3. Cc1cnc(S(C)(=O)=O)nc1N1CCCC(n2nc(-c3ccc(Oc4ccccc4)cc3)c3c(N)ncnc32)C1 (stereo not shown) = 29%
4. CCOC(=O)c1cnc(S(C)(=O)=O)nc1N1CCC[C@@H](n2nc(-c3ccc(Oc4ccccc4)cc3)c3c(N)ncnc32)C1 = 46%

* * *

Biological target: FGFR3(G697C) (Homo sapiens, UniProt P22607, G697C)
Construct: purchased Eurofins DiscoverX KINOMEscan (scanTK)
Sequence (P22607 23-806 G697C): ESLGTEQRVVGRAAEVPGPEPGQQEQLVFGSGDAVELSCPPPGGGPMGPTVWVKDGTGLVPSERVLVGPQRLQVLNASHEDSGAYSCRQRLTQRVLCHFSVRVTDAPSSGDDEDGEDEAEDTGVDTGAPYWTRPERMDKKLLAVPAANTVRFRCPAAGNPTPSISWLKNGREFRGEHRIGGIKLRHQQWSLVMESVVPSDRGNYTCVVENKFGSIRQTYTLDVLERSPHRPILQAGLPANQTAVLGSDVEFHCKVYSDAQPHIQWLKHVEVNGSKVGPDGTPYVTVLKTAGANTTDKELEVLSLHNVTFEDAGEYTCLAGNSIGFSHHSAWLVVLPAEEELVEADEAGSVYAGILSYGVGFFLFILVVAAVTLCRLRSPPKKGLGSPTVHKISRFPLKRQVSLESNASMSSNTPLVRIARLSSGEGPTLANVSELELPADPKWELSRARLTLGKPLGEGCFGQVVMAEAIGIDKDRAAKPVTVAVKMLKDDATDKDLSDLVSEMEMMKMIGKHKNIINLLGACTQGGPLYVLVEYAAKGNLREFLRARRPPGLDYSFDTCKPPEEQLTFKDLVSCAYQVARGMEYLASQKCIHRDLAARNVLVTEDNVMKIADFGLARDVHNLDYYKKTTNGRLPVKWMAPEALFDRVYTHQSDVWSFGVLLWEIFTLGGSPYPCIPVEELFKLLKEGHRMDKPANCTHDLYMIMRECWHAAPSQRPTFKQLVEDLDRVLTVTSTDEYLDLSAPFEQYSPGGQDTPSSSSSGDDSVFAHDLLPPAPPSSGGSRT
Assay: KINOMEscan ScanTK
Type: binding
Details: read-out: %Control @1000nM
Sorting guide: entries reporting remaining binding at 1 µM beneath 90% go in the True pile, the rest go in the False pile.

1. C=CC(=O)N1CCC[C@@H](n2nc(-c3ccc(Oc4ccccc4)cc3)c3c(N)ncnc32)C1 [Compound 1g, Ibrutinib, reference compound] = True
2. Cc1cnc(S(C)(=O)=O)nc1N1CCCC(n2nc(-c3ccc(Oc4ccccc4)cc3)c3c(N)ncnc32)C1 (centres unmarked) = False
3. COC(=O)c1cnc(S(C)(=O)=O)nc1N1CCCC(n2nc(-c3ccc(Oc4ccccc4)cc3)c3c(N)ncnc32)C1 (centres unmarked) = True
4. CNC(=O)c1cnc(S(C)(=O)=O)nc1N1CCCC(n2nc(-c3ccc(Oc4ccccc4)cc3)c3c(N)ncnc32)C1 (centres unmarked) = True

* * *

Molecular target: EGFR(T790M) (Homo sapiens, UniProt P00533, T790M)
Construct: purchased Eurofins DiscoverX KINOMEscan (scanTK)
Sequence (P00533 25-1210 T790M): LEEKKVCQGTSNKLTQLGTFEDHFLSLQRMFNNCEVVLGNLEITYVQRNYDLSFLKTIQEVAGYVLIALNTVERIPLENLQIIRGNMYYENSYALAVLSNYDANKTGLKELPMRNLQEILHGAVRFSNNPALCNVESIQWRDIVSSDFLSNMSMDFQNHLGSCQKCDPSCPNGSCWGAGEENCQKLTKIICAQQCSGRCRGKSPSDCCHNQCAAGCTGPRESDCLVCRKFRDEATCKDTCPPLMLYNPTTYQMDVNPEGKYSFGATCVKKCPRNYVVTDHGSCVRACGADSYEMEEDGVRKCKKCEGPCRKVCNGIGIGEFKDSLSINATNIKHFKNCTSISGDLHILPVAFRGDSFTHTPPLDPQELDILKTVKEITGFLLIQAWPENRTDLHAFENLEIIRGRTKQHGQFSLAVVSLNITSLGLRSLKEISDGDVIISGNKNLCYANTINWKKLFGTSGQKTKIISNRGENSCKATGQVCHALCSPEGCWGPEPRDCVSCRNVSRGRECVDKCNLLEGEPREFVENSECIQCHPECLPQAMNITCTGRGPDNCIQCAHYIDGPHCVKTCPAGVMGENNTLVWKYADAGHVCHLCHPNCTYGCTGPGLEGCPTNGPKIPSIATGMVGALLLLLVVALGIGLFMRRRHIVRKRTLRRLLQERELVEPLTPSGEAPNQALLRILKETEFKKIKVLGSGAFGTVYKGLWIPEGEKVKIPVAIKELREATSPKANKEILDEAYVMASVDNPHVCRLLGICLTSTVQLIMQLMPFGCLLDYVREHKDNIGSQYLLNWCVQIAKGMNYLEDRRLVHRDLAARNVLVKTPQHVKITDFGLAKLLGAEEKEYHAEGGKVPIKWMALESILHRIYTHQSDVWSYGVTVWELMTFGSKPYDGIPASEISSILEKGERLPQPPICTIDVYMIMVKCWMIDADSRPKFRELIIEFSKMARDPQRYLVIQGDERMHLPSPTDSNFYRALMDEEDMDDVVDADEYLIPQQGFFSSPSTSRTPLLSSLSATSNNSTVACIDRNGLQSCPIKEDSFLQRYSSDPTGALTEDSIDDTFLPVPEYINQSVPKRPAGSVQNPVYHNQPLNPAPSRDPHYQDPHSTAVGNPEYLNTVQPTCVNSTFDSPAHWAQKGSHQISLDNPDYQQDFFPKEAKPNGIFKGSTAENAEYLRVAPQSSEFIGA
Test: KINOMEscan ScanTK
Assay type: binding
Conditions: @1000nM
Quantity: difference in % of control versus compound Ib at 1 µM

1) CNC(=O)c1cnc(S(C)(=O)=O)nc1N1CCCC(n2nc(-c3ccc(Oc4ccccc4)cc3)c3c(N)ncnc32)C1 (stereo not shown) = 18.6%
2) COC(=O)c1cnc(S(C)(=O)=O)nc1N1CCCC(n2nc(-c3ccc(Oc4ccccc4)cc3)c3c(N)ncnc32)C1 (stereo not shown) = 41.5%
3) CCOC(=O)c1cnc(S(C)(=O)=O)nc1N1CCC[C@@H](n2nc(-c3ccc(Oc4ccccc4)cc3)c3c(N)ncnc32)C1 = 72.5%
4) Cc1cnc(S(C)(=O)=O)nc1N1CCCC(n2nc(-c3ccc(Oc4ccccc4)cc3)c3c(N)ncnc32)C1 (stereo not shown) = 69.5%

* * *

Biological target: ALK(C1156Y) (Homo sapiens, UniProt Q9UM73, C1156Y)
Construct: purchased Eurofins DiscoverX KINOMEscan (scanTK)
Sequence (Q9UM73 19-1620 C1156Y): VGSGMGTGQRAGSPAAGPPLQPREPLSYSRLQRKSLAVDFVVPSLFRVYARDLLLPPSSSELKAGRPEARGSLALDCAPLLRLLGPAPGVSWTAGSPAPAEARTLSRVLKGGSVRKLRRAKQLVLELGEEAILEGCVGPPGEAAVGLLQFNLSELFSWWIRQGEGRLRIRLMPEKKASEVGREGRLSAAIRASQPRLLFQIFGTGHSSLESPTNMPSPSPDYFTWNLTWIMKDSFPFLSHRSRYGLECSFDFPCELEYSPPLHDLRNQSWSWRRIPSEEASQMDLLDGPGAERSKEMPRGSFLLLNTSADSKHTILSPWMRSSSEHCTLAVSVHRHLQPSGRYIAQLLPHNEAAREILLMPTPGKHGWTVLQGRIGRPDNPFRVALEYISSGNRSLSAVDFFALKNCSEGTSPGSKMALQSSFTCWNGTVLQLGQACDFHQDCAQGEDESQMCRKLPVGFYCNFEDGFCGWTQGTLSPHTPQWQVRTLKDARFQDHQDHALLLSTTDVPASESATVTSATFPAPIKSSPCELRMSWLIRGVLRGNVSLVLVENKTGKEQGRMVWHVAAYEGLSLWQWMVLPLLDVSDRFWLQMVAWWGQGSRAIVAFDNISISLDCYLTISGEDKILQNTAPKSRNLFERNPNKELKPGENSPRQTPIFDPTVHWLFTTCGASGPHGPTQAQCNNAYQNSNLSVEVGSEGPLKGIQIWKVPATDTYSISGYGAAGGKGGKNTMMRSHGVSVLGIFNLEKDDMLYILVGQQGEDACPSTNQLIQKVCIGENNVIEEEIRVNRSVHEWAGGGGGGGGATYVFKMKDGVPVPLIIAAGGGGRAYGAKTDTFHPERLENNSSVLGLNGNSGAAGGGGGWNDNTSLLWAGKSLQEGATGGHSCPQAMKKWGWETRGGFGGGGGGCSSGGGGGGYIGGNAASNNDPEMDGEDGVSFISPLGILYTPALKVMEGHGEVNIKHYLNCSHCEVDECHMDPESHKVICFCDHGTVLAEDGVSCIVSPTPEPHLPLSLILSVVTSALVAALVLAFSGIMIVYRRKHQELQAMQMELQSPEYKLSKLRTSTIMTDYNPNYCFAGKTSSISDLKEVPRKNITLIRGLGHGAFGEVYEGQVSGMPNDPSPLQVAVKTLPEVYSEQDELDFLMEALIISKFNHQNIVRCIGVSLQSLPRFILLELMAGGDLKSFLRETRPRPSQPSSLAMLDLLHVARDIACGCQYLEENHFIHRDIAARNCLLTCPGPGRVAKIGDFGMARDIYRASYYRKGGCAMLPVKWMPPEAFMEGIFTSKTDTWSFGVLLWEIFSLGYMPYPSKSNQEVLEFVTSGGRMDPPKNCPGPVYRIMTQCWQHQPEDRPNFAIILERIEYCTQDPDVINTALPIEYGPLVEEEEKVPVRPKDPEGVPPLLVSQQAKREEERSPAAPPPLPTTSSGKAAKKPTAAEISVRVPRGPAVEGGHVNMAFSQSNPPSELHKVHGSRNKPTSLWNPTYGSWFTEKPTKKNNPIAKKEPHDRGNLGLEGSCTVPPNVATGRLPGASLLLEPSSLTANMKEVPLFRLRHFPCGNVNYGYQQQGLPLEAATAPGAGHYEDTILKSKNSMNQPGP
Assay: KINOMEscan ScanTK
Assay type: binding
Conditions: read-out: %Control @1000nM
Here the recorded remaining binding at 1 µM is given for each entry.
Quantity: remaining binding at 1 µM (%)

1) Cc1cnc(S(C)(=O)=O)nc1N1CCCC(n2nc(-c3ccc(Oc4ccccc4)cc3)c3c(N)ncnc32)C1 (centres unmarked) = 85
2) CCOC(=O)c1cnc(S(C)(=O)=O)nc1N1CCC[C@@H](n2nc(-c3ccc(Oc4ccccc4)cc3)c3c(N)ncnc32)C1 = 90
3) CNC(=O)c1cnc(S(C)(=O)=O)nc1N1CCCC(n2nc(-c3ccc(Oc4ccccc4)cc3)c3c(N)ncnc32)C1 (centres unmarked) = 88
4) C=CC(=O)N1CCC[C@@H](n2nc(-c3ccc(Oc4ccccc4)cc3)c3c(N)ncnc32)C1 [Compound 1g, Ibrutinib, reference compound] = 98
5) COC(=O)c1cnc(S(C)(=O)=O)nc1N1CCCC(n2nc(-c3ccc(Oc4ccccc4)cc3)c3c(N)ncnc32)C1 (centres unmarked) = 90

* * *

Here the recorded remaining binding at 1 µM is given for each entry.
Molecular target: TEC (Homo sapiens, UniProt P42680)
Construct: purchased Eurofins DiscoverX KINOMEscan (scanTK)
Experiment: KINOMEscan ScanTK
Assay type: binding
Details: @1000nM, read-out: %Control
Quantity: remaining binding at 1 µM

1) COC(=O)c1cnc(S(C)(=O)=O)nc1N1CCCC(n2nc(-c3ccc(Oc4ccccc4)cc3)c3c(N)ncnc32)C1 (centres unmarked) [Compound 8b] = 32%
2) Cc1cnc(S(C)(=O)=O)nc1N1CCCC(n2nc(-c3ccc(Oc4ccccc4)cc3)c3c(N)ncnc32)C1 (centres unmarked) [Compound 8a] = 27%
3) CCOC(=O)c1cnc(S(C)(=O)=O)nc1N1CCC[C@@H](n2nc(-c3ccc(Oc4ccccc4)cc3)c3c(N)ncnc32)C1 [Compound 8c] = 53%
4) C=CC(=O)N1CCC[C@@H](n2nc(-c3ccc(Oc4ccccc4)cc3)c3c(N)ncnc32)C1 [Compound 1g, Ibrutinib, reference compound] = 20%
5) CNC(=O)c1cnc(S(C)(=O)=O)nc1N1CCCC(n2nc(-c3ccc(Oc4ccccc4)cc3)c3c(N)ncnc32)C1 (centres unmarked) [Compound 8d] = 40%

* * *

Here the recorded remaining binding at 1 µM is given for each entry.
Target: FLT3(D835H) (Homo sapiens, UniProt P36888, D835H)
Construct: purchased Eurofins DiscoverX KINOMEscan (scanTK)
Assay: KINOMEscan ScanTK
Format: binding
Conditions: read-out: %Control @1000nM
Quantity: remaining binding at 1 µM (%)

1) Cc1cnc(S(C)(=O)=O)nc1N1CCCC(n2nc(-c3ccc(Oc4ccccc4)cc3)c3c(N)ncnc32)C1 (centres unmarked) = 68
2) CNC(=O)c1cnc(S(C)(=O)=O)nc1N1CCCC(n2nc(-c3ccc(Oc4ccccc4)cc3)c3c(N)ncnc32)C1 (centres unmarked) = 83
3) CCOC(=O)c1cnc(S(C)(=O)=O)nc1N1CCC[C@@H](n2nc(-c3ccc(Oc4ccccc4)cc3)c3c(N)ncnc32)C1 = 96
4) COC(=O)c1cnc(S(C)(=O)=O)nc1N1CCCC(n2nc(-c3ccc(Oc4ccccc4)cc3)c3c(N)ncnc32)C1 (centres unmarked) = 74
5) C=CC(=O)N1CCC[C@@H](n2nc(-c3ccc(Oc4ccccc4)cc3)c3c(N)ncnc32)C1 [Compound 1g, Ibrutinib, reference compound] = 36

* * *

Target: CSK (Homo sapiens)
Construct: purchased Eurofins DiscoverX KINOMEscan (scanTK)
Assay: KINOMEscan ScanTK
Type: binding
Details: @1000nM
Quantity: difference in %Control from reference compound Ib at 1 µM (%)

1) CCOC(=O)c1cnc(S(C)(=O)=O)nc1N1CCC[C@@H](n2nc(-c3ccc(Oc4ccccc4)cc3)c3c(N)ncnc32)C1 = 25.5
2) COC(=O)c1cnc(S(C)(=O)=O)nc1N1CCCC(n2nc(-c3ccc(Oc4ccccc4)cc3)c3c(N)ncnc32)C1 (stereo not shown) = 21.5
3) CNC(=O)c1cnc(S(C)(=O)=O)nc1N1CCCC(n2nc(-c3ccc(Oc4ccccc4)cc3)c3c(N)ncnc32)C1 (stereo not shown) = 3.6
4) Cc1cnc(S(C)(=O)=O)nc1N1CCCC(n2nc(-c3ccc(Oc4ccccc4)cc3)c3c(N)ncnc32)C1 (stereo not shown) = 2.1
